# SYSTEM_TESTED: T1, EDIII-DV4 (E protein domain III of dengue virus serotype DV-4) (dengue virus serotype DV-4, UniProt P09866 572-679)
# T1 construct: also called DENV-4
pKd: −log10 of the molar value.
Short version: pKd at least 8 is Condition met, less is Condition not met.

Below are worked cases with known answers.
BINDER	ASSIGNED_LABEL
antibody D88 (antibody, V domains shown, also called mAb D88) VH: QVQLVQSGAEVKKPGASVKVSCKAGFNIKDVYMSWVRQAPEQGLEWMGRIDPENGDTKYDPKLQGRVTMTADTSTNTAYMELRSLRSDDTAVYYCARGWEGFAYWGQGTLVTVSS VL: DIVMTQSPASLAVSLGERATISCRASENVDKYGNSFMHWYQQKPGQPPKLLIYRASELQWGVPDRFSGSGSGTDFTLTISSLQAEDVAVYYCQRSNEVPWTFGQGTKLEIK	Condition met
D168 (antibody, V domains shown) VH: QVQLVQSGAEVKKPGASVKVSCKASGYNIKDVYMSWVRQAPEQGLEWMGRIDPENGDTKYDPKLQGRVTMTADTSTNTAYMELRSLRSDDTAVYYCARGWEGFAYWGQGTLVTVSS VL: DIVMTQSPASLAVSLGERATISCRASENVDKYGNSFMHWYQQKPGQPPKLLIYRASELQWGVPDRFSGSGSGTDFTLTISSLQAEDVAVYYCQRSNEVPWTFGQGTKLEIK	Condition not met
antibody D148 (antibody, V domains shown) VH: QVQLVQSGAEVKKPGASVKVSCKASYFNIKDVYMSWVRQAPEQGLEWMGRIDPENGDTKYDPKLQGRVTMTADTSTNTAYMELRSLRSDDTAVYYCARGWEGFAYWGQGTLVTVSS VL: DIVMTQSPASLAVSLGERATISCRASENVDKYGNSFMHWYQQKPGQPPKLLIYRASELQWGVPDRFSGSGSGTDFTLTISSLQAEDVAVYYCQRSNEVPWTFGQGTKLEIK	Condition not met

Problem: Hi team, for antibody D108 (antibody, V domains shown) VH: QVQLVQSGAEVKKPGASVKVSCKASYWNIKDVYMSWVRQAPEQGLEWMGRIDPENGDTKYDPKLQGRVTMTADTSTNTAYMELRSLRSDDTAVYYCARGWEGFAYWGQGTLVTVSS VL: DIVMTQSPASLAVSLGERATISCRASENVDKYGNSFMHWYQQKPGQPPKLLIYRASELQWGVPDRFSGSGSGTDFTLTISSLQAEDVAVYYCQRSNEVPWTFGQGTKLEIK , is the recorded pKd at or above 8?
Solution: Condition not met

Problem: Hi team, for antibody D128 (antibody, V domains shown) VH: QVQLVQSGAEVKKPGASVKVSCKASAWNIKDVYMSWVRQAPEQGLEWMGRIDPENGDTKYDPKLQGRVTMTADTSTNTAYMELRSLRSDDTAVYYCARGWEGFAYWGQGTLVTVSS VL: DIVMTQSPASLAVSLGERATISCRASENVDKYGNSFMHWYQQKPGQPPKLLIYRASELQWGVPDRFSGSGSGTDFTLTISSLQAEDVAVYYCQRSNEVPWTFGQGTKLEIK , is the recorded pKd at or above 8?
Solution: Condition not met

Provenance of the data: patent US20240425569A1
